In this section, each of the molecules is paired with its reported IC50.
- system-tested: Mitogen-activated protein kinase kinase kinase 5 (Homo sapiens)
- Sequence (Q99683 whole entry): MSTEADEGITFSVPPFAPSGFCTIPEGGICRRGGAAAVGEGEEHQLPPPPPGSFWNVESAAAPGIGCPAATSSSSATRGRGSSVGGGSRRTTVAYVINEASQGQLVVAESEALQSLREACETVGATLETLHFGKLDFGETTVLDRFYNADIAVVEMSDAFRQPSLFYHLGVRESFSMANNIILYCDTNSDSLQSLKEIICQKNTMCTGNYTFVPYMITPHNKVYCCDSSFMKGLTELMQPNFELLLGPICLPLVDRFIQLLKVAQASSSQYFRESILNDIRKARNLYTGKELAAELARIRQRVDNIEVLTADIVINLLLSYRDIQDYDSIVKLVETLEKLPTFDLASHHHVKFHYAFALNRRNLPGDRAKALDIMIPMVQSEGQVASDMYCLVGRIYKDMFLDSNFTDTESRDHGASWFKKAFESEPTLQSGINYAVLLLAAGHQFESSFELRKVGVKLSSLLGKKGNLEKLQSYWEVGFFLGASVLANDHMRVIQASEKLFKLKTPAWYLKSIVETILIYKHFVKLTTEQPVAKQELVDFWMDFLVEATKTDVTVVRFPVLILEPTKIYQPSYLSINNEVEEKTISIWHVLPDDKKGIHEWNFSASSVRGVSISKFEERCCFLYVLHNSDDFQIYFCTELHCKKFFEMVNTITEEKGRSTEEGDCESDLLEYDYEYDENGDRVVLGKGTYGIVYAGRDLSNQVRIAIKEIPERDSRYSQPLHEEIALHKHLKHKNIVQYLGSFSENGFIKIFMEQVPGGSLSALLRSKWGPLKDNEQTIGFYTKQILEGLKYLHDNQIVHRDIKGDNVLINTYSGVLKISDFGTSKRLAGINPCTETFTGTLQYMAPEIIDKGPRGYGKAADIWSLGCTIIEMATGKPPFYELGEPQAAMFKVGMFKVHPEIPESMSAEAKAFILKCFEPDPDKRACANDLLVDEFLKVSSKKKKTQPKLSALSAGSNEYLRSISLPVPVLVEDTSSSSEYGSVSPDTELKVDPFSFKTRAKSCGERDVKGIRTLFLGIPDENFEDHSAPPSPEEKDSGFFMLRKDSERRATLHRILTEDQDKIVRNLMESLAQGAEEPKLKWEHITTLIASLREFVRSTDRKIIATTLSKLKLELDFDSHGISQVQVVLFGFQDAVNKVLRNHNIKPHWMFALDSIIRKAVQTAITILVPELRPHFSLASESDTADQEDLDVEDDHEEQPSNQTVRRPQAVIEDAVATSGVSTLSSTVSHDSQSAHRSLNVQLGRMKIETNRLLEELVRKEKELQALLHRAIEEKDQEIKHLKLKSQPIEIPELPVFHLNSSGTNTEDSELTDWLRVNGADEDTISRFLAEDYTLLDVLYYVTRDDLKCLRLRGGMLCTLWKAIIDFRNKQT
- test-details: Inhibition of ASK1 by fluorescence correlation spectroscopy
endpoint-name: IC50 (µM)

molecule	system-tested	rel	measurement
Cn1cc(/C=C2\C(=O)Nc3ccccc32)c2ccccc21	Mitogen-activated protein kinase kinase kinase 5 (Homo sapiens)	>	100
NC1=NC(=O)/C(=C2\CCNC(=O)c3[nH]c(Br)cc32)N1 [HYMENIALDISINE]	Mitogen-activated protein kinase kinase kinase 5 (Homo sapiens)	=	7
